- assay system: URAT-1 transporter (Homo sapiens, UniProt Q96S37)
- Construct: expressed in transfected cells
- Sequence (Q96S37 with tags, fused parts or gaps): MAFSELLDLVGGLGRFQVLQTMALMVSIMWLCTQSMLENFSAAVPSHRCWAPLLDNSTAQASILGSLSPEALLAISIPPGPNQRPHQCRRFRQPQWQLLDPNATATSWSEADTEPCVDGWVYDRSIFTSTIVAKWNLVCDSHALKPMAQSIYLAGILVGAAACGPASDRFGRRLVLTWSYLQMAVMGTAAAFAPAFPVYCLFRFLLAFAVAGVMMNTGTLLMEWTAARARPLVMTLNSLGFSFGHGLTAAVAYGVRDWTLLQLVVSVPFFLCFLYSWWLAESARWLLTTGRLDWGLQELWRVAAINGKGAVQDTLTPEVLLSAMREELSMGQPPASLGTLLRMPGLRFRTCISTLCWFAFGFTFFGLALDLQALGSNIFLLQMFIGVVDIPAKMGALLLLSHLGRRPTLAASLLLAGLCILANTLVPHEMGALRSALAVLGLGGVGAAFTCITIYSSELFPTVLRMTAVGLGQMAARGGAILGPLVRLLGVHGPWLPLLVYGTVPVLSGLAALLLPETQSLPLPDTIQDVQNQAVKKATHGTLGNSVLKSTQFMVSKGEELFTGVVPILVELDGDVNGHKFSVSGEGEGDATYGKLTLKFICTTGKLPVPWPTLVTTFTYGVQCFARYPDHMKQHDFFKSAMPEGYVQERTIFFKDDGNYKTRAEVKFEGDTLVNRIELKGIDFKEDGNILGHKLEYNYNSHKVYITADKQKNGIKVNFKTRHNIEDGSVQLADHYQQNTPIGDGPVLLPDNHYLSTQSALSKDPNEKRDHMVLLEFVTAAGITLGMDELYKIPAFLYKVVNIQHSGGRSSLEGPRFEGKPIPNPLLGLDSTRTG
- protocol notes: URAT-1 inhibitor activity: [14C]-uric acid uptake into CHO-URAT1(L)GFP#8 (CHO#8) cells, scintillation proximity
- Type: cell-based
pIC50: −log10 of the molar value. Structures can show the parent of a compound that is named as a salt.
# pIC50 listing for each entry below

compound: N#Cc1cc(Oc2ccc(S(=O)(=O)Nc3cscn3)c(F)c2)ccc1F
limit qualifier: <
pIC50: 5.00
//
compound: N#Cc1ccc(Oc2ccc(S(=O)(=O)Nc3ncns3)cc2C#N)cc1Cl
limit qualifier: <
pIC50: 5.78
//
compound: COc1c(Oc2cc(F)c(S(=O)(=O)Nc3nncs3)cc2Cl)ccc(F)c1C
limit qualifier: <
pIC50: 5.77
//
compound: N#Cc1cc(Oc2ccc(S(=O)(=O)Nc3nncs3)cc2Cl)ccc1F
limit qualifier: =
pIC50: 5.85
//
compound: N#Cc1cc(S(=O)(=O)Nc2nccs2)ccc1Oc1ccc(C(F)(F)F)cc1Br
limit qualifier: =
pIC50: 5.57
//
compound: N#Cc1ccc(Oc2ccc(S(=O)(=O)Nc3ncc(Cl)s3)cc2C#N)cc1Cl
limit qualifier: =
pIC50: 6.35
//
compound: COc1ccc(F)c(Oc2ccc(S(=O)(=O)Nc3ncns3)cc2C#N)c1
limit qualifier: =
pIC50: 5.84
//
compound: N#Cc1cc(S(=O)(=O)Nc2nccs2)ccc1Oc1ccc(I)cc1
limit qualifier: =
pIC50: 6.30
//
compound: O=S(=O)(Nc1cscn1)c1cc(Cl)c(Oc2ccc(F)c(F)c2)cc1F
limit qualifier: <
pIC50: 5.00
//
compound: N#Cc1cc(S(=O)(=O)Nc2ncc(F)s2)ccc1Oc1ccc(CCO)cc1
limit qualifier: <
pIC50: 5.00
//
compound: O=S(=O)(Nc1cscn1)c1cc(Cl)c(Oc2ccc(F)cc2I)cc1F
limit qualifier: =
pIC50: 6.31
//
compound: CC(C)c1cccc(Oc2ccc(S(=O)(=O)Nc3ncc(F)s3)cc2C#N)c1
limit qualifier: <
pIC50: 5.17
//
compound: Cc1ccc(Cl)cc1Oc1ccc(S(=O)(=O)Nc2ncc(F)s2)cc1C#N
limit qualifier: =
pIC50: 6.32
//
compound: O=S(=O)(Nc1ncns1)c1ccc(Oc2cccc(C(F)(F)F)c2F)c(Cl)c1
limit qualifier: =
pIC50: 5.83
//
compound: CC(C)c1ncccc1Oc1ccc(S(=O)(=O)Nc2ncns2)cc1C#N [compound 274, trifluoroacetic acid salt]
limit qualifier: <
pIC50: 5.00
//
compound: Cc1cc(Cl)ccc1Oc1ccc(S(=O)(=O)Nc2ncns2)cc1C#N
limit qualifier: <
pIC50: 5.51
//
compound: N#Cc1cc(S(=O)(=O)Nc2ncns2)ccc1Oc1cc(C(F)(F)F)ccc1F
limit qualifier: =
pIC50: 5.36
//
compound: N#Cc1cc(S(=O)(=O)Nc2ncns2)ccc1Oc1cc(Cl)ccc1Cl
limit qualifier: =
pIC50: 6.23
//
compound: N#Cc1cc(S(=O)(=O)Nc2ncc(F)s2)ccc1Oc1cccc(F)c1F
limit qualifier: =
pIC50: 5.36
//
compound: N#Cc1cc(Oc2c(F)cc(S(=O)(=O)Nc3ncns3)cc2F)ccc1F
limit qualifier: <
pIC50: 5.17
//
compound: N#Cc1cc(S(=O)(=O)Nc2ncns2)ccc1Oc1cccc(C(F)(F)F)c1F
limit qualifier: =
pIC50: 5.28
//
compound: COc1cc(Cl)cc(Oc2cc(F)c(S(=O)(=O)Nc3nncs3)cc2Cl)c1
limit qualifier: =
pIC50: 5.97
//
compound: COc1cc(Cl)ccc1Oc1ccc(S(=O)(=O)Nc2nncs2)c(OC)c1
limit qualifier: <
pIC50: 5.24
//
compound: Cc1cncc(Oc2cc(F)c(S(=O)(=O)Nc3nncs3)cc2Cl)c1
limit qualifier: =
pIC50: 5.96
//
compound: CCOc1ccccc1Oc1ccc(S(=O)(=O)Nc2ncns2)cc1C#N
limit qualifier: =
pIC50: 5.49
//
compound: O=S(=O)(Nc1cscn1)c1cc(Cl)c(Oc2ccc(C(F)(F)F)cc2Br)cc1F
limit qualifier: <
pIC50: 5.31
//
compound: N#Cc1cc(S(=O)(=O)Nc2nccs2)ccc1Oc1ccc(Br)cc1F
limit qualifier: <
pIC50: 5.90
//
compound: Cc1ccccc1Oc1cc(F)c(S(=O)(=O)Nc2nncs2)cc1Cl
limit qualifier: <
pIC50: 6.08
//
compound: COc1cc(C)ccc1Oc1ccc(S(=O)(=O)Nc2ncns2)cc1C#N
limit qualifier: =
pIC50: 5.25
//
compound: CCc1cc(F)ccc1Oc1ccc(S(=O)(=O)Nc2nccs2)c(F)c1
limit qualifier: <
pIC50: 5.00
//
compound: N#Cc1cc(S(=O)(=O)Nc2nncs2)ccc1Oc1cnc(OC2CCC2)c(Cl)c1
limit qualifier: =
pIC50: 5.41
//
compound: CC(C)c1ncccc1Oc1cc(F)c(S(=O)(=O)Nc2nncs2)cc1Cl
limit qualifier: =
pIC50: 5.36
//
compound: COc1cc(Cl)c(Cl)cc1Oc1ccc(S(=O)(=O)Nc2ncns2)cc1C#N
limit qualifier: <
pIC50: 5.55
//
compound: CCOc1cc(C)ccc1Oc1cc(F)c(S(=O)(=O)Nc2nncs2)cc1Cl
limit qualifier: <
pIC50: 5.17
//
compound: N#Cc1cc(S(=O)(=O)Nc2ncns2)ccc1Oc1cncc(Cl)c1
limit qualifier: <
pIC50: 5.00
